FYI, the data here is from patent US9932309B2.

Biological target: mTGR5 (Mus musculus)
Construct: expressed in transfected cells; host or cells: HEK293 cells, transiently co-transfected with the pCRE TA-Luciferase reporter
Sequence (Q80SS6 whole entry): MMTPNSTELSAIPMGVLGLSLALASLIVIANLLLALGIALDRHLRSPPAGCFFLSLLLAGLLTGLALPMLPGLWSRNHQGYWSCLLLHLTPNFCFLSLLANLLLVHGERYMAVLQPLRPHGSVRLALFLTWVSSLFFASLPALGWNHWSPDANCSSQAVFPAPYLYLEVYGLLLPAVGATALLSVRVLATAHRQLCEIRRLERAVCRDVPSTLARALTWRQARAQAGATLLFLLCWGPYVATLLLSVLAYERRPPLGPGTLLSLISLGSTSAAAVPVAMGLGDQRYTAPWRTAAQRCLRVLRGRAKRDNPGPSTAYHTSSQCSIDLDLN
Assay: TGR5/CRE Luciferase Assay (mTGR5)
Assay type: cell-based
Details: percentage of the 10 μM LCA value; HEK 293 cells transfected with mTGR5
QUANTITY NAME: mTGR5 % trans (%)
Reply with just the number (in %).

(Q) For COCCN1C(=O)CC(c2ccc(Cl)cc2Cl)C(C(=O)OCc2ccccc2OC)=C1C (stereo not drawn) [Example 129] , write its mTGR5 % trans.
(A) 81

(Q) Output measured mTGR5 % trans for this item: CC1=C(C(=O)OCc2ccc(OCCCCS(=O)(=O)O)cc2)[C@H](c2ccc(Cl)cc2)CC(=O)N1C[C@H]1CCCO1 [Example 169]
(A) 103

(Q) Given the compound COc1ccccc1COC(=O)C1=C(C)N(CC2CC2)C(=O)CC1c1ccc(Cl)cc1 (stereo not drawn) [Compound 70] , write its reported mTGR5 % trans.
(A) 102

(Q) Please give measured mTGR5 % trans of the following entry: COCCN1C(=O)CC(c2ccc(Cl)c(Cl)c2)C(C(=O)OCc2ccccc2OC)=C1C (stereo not drawn) [Example 127]
(A) 109

(Q) Supply measured mTGR5 % trans of COCCN1C(=O)CC(c2ccc(Cl)cc2)C(C(=O)OCc2ccccc2C(F)(F)F)=C1C (stereo not drawn) [Example 90] in your reply.
(A) 34

(Q) Name the recorded mTGR5 % trans of the item CC1=C(C(=O)OCc2ccc(OCCS(=O)(=O)O)cc2)[C@@H](c2ccc(Cl)nc2)CC(=O)N1C[C@@H]1CCCO1.N (racemic) [Example 153] in your answer.
(A) 102

(Q) Note mTGR5 % trans for the compound shown: CC1=C(C(=O)OCc2ccccc2)C(c2ccc(Cl)cc2)CC(=O)N1CC(=O)OC(C)(C)C (stereo not drawn) [Compound 58]
(A) 70

(Q) // fetch mTGR5 % trans given entry COCCN1C(=O)CC(c2ccc(Cl)cc2)C(C(=O)OCc2ccc(OCCC[N+](C)(C)C)cc2)=C1C.[I-] (stereo not drawn) [Example 117]
(A) 77

(Q) Answer with reported mTGR5 % trans of CC1=C(C(=O)OCc2ccc(OCCCS(=O)(=O)O)cc2)[C@H](c2ccc(Cl)nc2)CC(=O)N1C[C@H]1CCCO1.N [Example 166]
(A) 113

* * *

Target: hTGR5 (Homo sapiens, UniProt Q8TDU6)
Sequence (Q8TDU6 whole entry): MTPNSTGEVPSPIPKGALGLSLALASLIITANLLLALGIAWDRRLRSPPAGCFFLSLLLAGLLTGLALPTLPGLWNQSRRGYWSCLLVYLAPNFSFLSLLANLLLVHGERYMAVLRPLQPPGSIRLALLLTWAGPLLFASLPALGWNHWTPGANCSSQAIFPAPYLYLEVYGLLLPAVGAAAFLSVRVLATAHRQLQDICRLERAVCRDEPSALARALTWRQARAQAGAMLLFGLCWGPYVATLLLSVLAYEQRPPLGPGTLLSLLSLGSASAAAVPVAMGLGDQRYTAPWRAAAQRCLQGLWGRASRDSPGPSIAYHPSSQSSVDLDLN
Experiment: TGR5/CRE Luciferase Assay (hTGR5)
Settings: HEK 293 cells co-transfected with pCMV tag4b-TGR5h and pCRE TA-Luciferase; overnight incubation
Description: TGR5/CRE Luciferase Assay In the following Tables TGR5 activation by compounds of the invention and subsequent increase in intracellular cAMP were evaluated using a luciferase reporter gene assay. […] Luminescence was read with a Mithras plate reader (Berthold) or a Victor3™ V1420 (Perkin Elmer). […]
pEC50: −log10 of the molar value.
Could you label it label 1 if measured pEC50 is 6 or higher, and label 0 otherwise?

(Q) Hello, I need to know if CC1=C(C(=O)OCc2ccccc2)C(c2ccc(Cl)cc2)CC(=O)N1CCN (centres unmarked) has measured pEC50 not below 6. Thanks!
(A) label 0

(Q) In plain terms: is recorded pEC50 at least 6 for COCCN1C(=O)CC(c2ccc(Cl)cc2)C(C(=O)OCc2ccc(C(=O)OC)cc2)=C1C (centres unmarked) ?
(A) label 1

(Q) Reported pEC50 at or above 6? COc1ccccc1COC(=O)C1=C(C)N(C[C@H]2CCCO2)C(=O)C[C@H]1c1ccc(C(F)(F)F)nc1 (racemic)
(A) label 1

(Q) Is the recorded value of pEC50 equal to or greater than 6 for this compound? COCCN1C(=O)CC(c2ccncc2)C(C(=O)OCc2ccccc2OC)=C1C (centres unmarked)
(A) label 0

(Q) Confirm if pEC50 reported for the compound `CC1=C(C(=O)OCc2ccc(OCCCS(=O)(=O)O)cc2)[C@H](c2ccc(Cl)cc2)CC(=O)N1C[C@H]1CCCO1.N` is 6 or above.
(A) label 1

* * *

Molecular target: hTGR5 (Homo sapiens, UniProt Q8TDU6)
Assay: TGR5/CRE Luciferase Assay (hTGR5)
Settings: HEK 293 cells co-transfected with pCMV tag4b-TGR5h and pCRE TA-Luciferase; overnight incubation
QUANTITY NAME: EC50 (nM)
Give just the number in nM; leave the unit off.

(Q) For the compound CC1=C(C(=O)OCc2ccccc2)C(c2ccc(Cl)cc2)CC(=O)N1Cc1nc(C)no1 (stereo not drawn) , give its measured EC50 value.
(A) 1100

(Q) Give me measured EC50, please, for this compound: O=C(OCc1ccccc1)C1=CN(CC2CC2)C(=O)CC1c1ccc(Cl)cc1 (stereo not drawn)
(A) 1260

(Q) Input CC1=C(C(=O)OCc2c(F)cccc2F)C(c2ccc(Cl)cc2)CC(=O)N1C (stereo not drawn) , output reported EC50.
(A) 700
